The origin of these recorded values is ChEMBL document CHEMBL1914371.

- testedOn: D(4) dopamine receptor (Homo sapiens)
- Sequence (P21917 whole entry): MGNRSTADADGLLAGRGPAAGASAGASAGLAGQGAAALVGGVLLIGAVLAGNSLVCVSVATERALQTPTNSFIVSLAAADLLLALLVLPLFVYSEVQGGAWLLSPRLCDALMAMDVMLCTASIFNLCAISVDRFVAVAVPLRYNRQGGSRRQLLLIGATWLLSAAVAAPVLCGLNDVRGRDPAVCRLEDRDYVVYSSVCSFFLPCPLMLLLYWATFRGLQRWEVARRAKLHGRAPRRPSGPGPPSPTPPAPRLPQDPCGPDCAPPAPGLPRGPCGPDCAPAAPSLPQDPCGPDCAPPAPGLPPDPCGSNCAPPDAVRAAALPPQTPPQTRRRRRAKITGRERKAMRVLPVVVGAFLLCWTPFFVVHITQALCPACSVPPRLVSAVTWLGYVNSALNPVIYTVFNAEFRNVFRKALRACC
- assayInfo: Displacement of [3H]spiperone from human dopamine D4.4 receptor expressed in chinese hamster CHO cells by radioligand binding assay
- Type: cell-based
reportedEndpoint: Ki

Lookup: Notebook: pull reported Ki for D(4) dopamine receptor (Homo sapiens), entry `CCCN(CCCCNC(=O)c1ccc(OCCCc2cn(CCCCCCCCn3cc(CCCOc4ccc(C(=O)NCCCCN(CCC)C5Cc6ccccc6C5)cc4OC)nn3)nn2)c(OC)c1)C1Cc2ccccc2C1`
Found: 0.034 µM
